Molecular target: T1, Factor VIIIa (FVIIIa), from recombinant FVIII (Kogenate FS; Bayer healthcare) activated with alpha-thrombin (UniProt P00451 20-2351)
T1 sequence (looked up): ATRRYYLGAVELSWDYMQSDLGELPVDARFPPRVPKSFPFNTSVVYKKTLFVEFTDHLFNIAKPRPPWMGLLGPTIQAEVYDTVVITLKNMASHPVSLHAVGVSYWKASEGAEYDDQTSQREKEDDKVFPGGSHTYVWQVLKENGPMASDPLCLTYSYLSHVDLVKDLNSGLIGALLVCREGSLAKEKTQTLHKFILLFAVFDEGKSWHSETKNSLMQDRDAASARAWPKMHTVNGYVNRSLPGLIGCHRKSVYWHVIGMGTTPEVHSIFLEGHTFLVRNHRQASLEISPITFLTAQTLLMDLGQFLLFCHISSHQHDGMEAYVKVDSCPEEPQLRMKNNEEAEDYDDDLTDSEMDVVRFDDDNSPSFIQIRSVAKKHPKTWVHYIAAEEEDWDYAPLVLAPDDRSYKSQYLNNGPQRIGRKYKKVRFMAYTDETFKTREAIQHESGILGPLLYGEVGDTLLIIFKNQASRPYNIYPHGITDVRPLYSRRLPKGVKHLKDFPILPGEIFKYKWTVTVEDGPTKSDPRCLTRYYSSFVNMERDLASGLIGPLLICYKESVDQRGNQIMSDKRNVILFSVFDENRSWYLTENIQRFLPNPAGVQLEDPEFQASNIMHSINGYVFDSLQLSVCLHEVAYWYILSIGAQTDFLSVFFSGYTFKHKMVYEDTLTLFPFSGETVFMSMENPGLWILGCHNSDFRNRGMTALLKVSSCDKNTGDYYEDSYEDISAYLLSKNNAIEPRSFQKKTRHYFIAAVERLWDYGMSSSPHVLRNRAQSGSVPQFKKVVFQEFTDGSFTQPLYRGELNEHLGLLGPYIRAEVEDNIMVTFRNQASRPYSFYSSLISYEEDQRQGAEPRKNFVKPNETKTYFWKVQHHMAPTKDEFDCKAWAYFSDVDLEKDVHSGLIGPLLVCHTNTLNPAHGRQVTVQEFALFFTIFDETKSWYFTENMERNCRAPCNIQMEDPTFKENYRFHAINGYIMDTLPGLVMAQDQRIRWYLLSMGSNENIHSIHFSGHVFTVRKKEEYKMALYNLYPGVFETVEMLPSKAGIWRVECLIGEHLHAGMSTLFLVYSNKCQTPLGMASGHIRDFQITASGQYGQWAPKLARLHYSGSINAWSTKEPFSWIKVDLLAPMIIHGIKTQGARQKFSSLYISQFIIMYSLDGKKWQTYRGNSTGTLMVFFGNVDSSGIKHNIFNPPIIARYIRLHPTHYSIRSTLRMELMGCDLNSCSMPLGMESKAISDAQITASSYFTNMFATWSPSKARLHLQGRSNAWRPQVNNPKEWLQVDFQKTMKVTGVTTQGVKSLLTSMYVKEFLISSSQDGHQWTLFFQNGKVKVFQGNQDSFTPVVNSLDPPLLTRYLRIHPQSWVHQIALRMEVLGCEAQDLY
Experiment: ratio of KD-app of Catalyst Biosciences WT FIXa to KD-app of the variant, same Xase assay
// reported KD-WT/KD-mut for each item listed

| BINDER | KD-WT/KD-mut |
| --- | --- |
| FIXa variant R318Y/R338E/E410N/T412V (enzyme, also called R150Y/R170E/E240N/T242V) light: YNSGKLEEFVQGNLERECMEEKCSFEEAREVFENTERTTEFWKQYVDGDQCESNPCLNGGSCKDDINSYECWCPFGFEGKNCELDVTCNIKNGRCEQFCKNSADNKVVCSCTEGYRLAENQKSCEPAVPFPCGRVSVSQTSKLTR heavy: VVGGEDAKPGQFPWQVVLNGKVDAFCGGSIVNEKWIVTAAHCVETGVKITVVAGEHNIEETEHTEQKRNVIRIIPHHNYNAAINKYNHDIALLELDEPLVLNSYVTPICIADKEYTNIFLKFGSGYVSGWGRVFHKGYSALVLQYLRVPLVDRATCLESTKFTIYNNMFCAGFHEGGRDSCQGDSGGPHVTEVEGTSFLTGIISWGEECAMKGKYGIYTKVSRYVNWIKNKVKLT | 10.7 fold |
| FIXa variant R318Y/R338E/N346D/R403E/E410N (enzyme, also called R150Y/R170E/N178D/R233E/E240N) light: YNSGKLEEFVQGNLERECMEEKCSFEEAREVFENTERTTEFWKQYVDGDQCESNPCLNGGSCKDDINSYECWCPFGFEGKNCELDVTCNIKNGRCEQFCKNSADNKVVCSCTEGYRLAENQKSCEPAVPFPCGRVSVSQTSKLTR heavy: VVGGEDAKPGQFPWQVVLNGKVDAFCGGSIVNEKWIVTAAHCVETGVKITVVAGEHNIEETEHTEQKRNVIRIIPHHNYNAAINKYNHDIALLELDEPLVLNSYVTPICIADKEYTNIFLKFGSGYVSGWGRVFHKGYSALVLQYLRVPLVDRATCLESTKFTIYDNMFCAGFHEGGRDSCQGDSGGPHVTEVEGTSFLTGIISWGEECAMKGKYGIYTKVSEYVNWIKNKTKLT | 0.9 fold |
